B1: library; numbered along this chain (parent)
chain: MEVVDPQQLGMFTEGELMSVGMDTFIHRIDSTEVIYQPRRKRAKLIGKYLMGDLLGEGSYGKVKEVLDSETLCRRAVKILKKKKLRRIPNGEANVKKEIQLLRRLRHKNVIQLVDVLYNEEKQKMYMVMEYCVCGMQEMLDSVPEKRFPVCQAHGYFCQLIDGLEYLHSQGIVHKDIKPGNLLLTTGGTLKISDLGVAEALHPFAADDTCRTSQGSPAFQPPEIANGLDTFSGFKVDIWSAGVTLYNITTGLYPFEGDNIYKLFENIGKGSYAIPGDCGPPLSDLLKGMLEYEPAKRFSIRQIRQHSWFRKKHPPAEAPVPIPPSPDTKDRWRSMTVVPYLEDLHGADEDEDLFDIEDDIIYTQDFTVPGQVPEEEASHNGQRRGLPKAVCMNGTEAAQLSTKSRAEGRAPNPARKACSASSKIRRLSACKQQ

variants of: B1; assay: STK11 functional score (HeLa growth suppression), rescaled enrichment; synonymous median = 1, nonsense median = 0 (normalised score); conditions: with HeLa; variant type: missense
For each of the variants below, state its STK11 functional score.
Reply briefly: the number, and no unit.

Requested field: STK11 functional score. Item: "K235W"
1.51

Query "T249M" next
1.47

Query "C134I" next
1.42

Query "T395M" next
1.05

Query "P339Q" next
1.52

Query "E65N" next
1.06

Query "S216T" next
0.847

Query "E57S" next
1.17
